Hey, just so you know, these numbers are from paper PMC10786919.

// reported EPSA for each item listed
Experiment: physchem
Positions of bridges follow the written chain, without caps; N, C: chain ends. Non-standard residues stand in square brackets, D forms with d. Residues, ends and D or L forms follow the SMILES beside them. Lys(N3) = [N-]=[N+]=NCCCC[C@H](N)C(=O)O; R8 = C=CCCCCCC[C@@](C)(N)C(=O)O; Cba = N[C@@H](CC1CCC1)C(=O)O; S5 = C=CCCC[C@](C)(N)C(=O)O

compound	EPSA
CC(=O)N[C@@H](CC(C)C)C(=O)N[C@H](C(=O)N[C@@H](Cc1ccccc1)C(=O)N[C@]1(C)CCCCCCC=CCCC[C@@](C)(C(=O)N[C@@H](CO)C(=O)N[C@@H](C)C(=O)N[C@@H](C)C(=O)NCCCCCC(N)=O)NC(=O)[C@H](CC2CCC2)NC(=O)[C@H](CCC(N)=O)NC(=O)[C@H](C)NC(=O)[C@H](Cc2c[nH]c3ccccc23)NC(=O)[C@H](Cc2ccc(O)cc2)NC(=O)[C@H](CCC(=O)O)NC1=O)[C@@H](C)O	193 A^2
CC(=O)N[C@@H](CCCCN=[N+]=[N-])C(=O)N[C@H](C(=O)N[C@@H](CO)C(=O)N[C@@H](Cc1ccccc1)C(=O)N[C@]1(C)CCCCCCC=CCCC[C@@](C)(C(=O)N[C@@H](CO)C(=O)N[C@@H](C)C(=O)N[C@@H](C)C(N)=O)NC(=O)[C@H](CC2CCC2)NC(=O)[C@H](CCC(N)=O)NC(=O)[C@H](C)NC(=O)[C@H](Cc2c[nH]c3ccccc23)NC(=O)[C@H](Cc2ccc(O)cc2)NC(=O)[C@H](C)NC1=O)[C@@H](C)O [MP-703] (Ac-[Lys(N3)]TSF[R8]AYWAQ[Cba][S5]SAA-NH2; staple 5-12)	178 A^2
CC(=O)N[C@@H](CO)C(=O)NCC(=O)N[C@@H](CO)C(=O)N[C@H](C(=O)N[C@@H](CO)C(=O)N[C@@H](Cc1ccccc1)C(=O)N[C@]1(C)CCCCCCC=CCCC[C@@](C)(C(N)=O)NC(=O)[C@H](CC(C)C)NC(=O)[C@H](CC(C)C)NC(=O)[C@H](C)NC(=O)[C@H](Cc2c[nH]c3ccccc23)NC(=O)[C@H](Cc2ccc(O)cc2)NC(=O)[C@H](CCC(=O)O)NC1=O)[C@@H](C)O	217 A^2

====

Assay: physchem
Positions of bridges follow the written chain, without caps; N, C: chain ends. Non-standard residues stand in square brackets, D forms with d. Residues, ends and D or L forms follow the SMILES beside them. R8 = C=CCCCCCC[C@@](C)(N)C(=O)O; Cba = N[C@@H](CC1CCC1)C(=O)O; S5 = C=CCCC[C@](C)(N)C(=O)O

molecule	EPSA
CC(=O)N[C@@H](Cc1ccccc1)C(=O)N[C@]1(C)CCCCCCC=CCCC[C@@](C)(C(=O)N[C@@H](CO)C(=O)N[C@@H](C)C(=O)N[C@@H](C)C(N)=O)NC(=O)[C@H](CC2CCC2)NC(=O)[C@H](CC(C)C)NC(=O)[C@H](CCC(N)=O)NC(=O)[C@H](Cc2c[nH]c3ccccc23)NC(=O)[C@H](Cc2ccc(O)cc2)NC(=O)[C@H](CCC(=O)O)NC1=O [MP-1202] (Ac-F[R8]EYWQL[Cba][S5]SAA-NH2; staple 2-9)	214 A^2
CC(=O)N[C@@H](CCCNC(=N)N)C(=O)N[C@H](C(=O)N[C@@H](Cc1ccccc1)C(=O)N[C@]1(C)CCCCCCC=CCCC[C@@](C)(C(=O)N[C@@H](CO)C(=O)N[C@@H](C)C(=O)N[C@@H](C)C(N)=O)NC(=O)[C@H](CC2CCC2)NC(=O)[C@H](CC(C)C)NC(=O)[C@H](CCC(N)=O)NC(=O)[C@H](Cc2c[nH]c3ccccc23)NC(=O)[C@H](Cc2ccc(O)cc2)NC(=O)[C@H](CCC(=O)O)NC1=O)[C@@H](C)O [MP-191] (Ac-RTF[R8]EYWQL[Cba][S5]SAA-NH2; staple 4-11)	222 A^2
